# PROTOCOL NOTES: amyloid nucleation score (Sup35N fusion, yeast selection) (log enrichment); library NNK3; higher = more nucleation; inactive = no reads after selection;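 note: zero at mode of non-aggregating sequences after 7 days selection at 30°C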
OUTCOME MEASURE: amyloid nucleation score

Reference set (5 entries):
>>> value_reported("IFLLAVNSGINVTGCPLPKG")
2.28
>>> value_reported("LCRGCSLGACGNSGLKYCGW")
"inactive"
>>> value_reported("LGASRGMFVKNLLIMASHSR")
"inactive"
>>> value_reported("HYCMRN")
"inactive"
>>> value_reported("HDYDAIRRLSRMCDVVEYSR")
"inactive"

Could you report amyloid nucleation score for every entry in the following list?
1. TSINFSMAIDLRSHQLERTV
2. HRKKYFLSPIVGPRTPRLCT
3. DISSKY

1. 0.479
2. inactive
3. inactive

Could you report amyloid nucleation score for every entry in the following list?
1. PYKTWTINVLLWNLSCTFLN
2. LSPGTFCRVDSTPVWVNACP
3. GNYVTVHIYVKAVFGNG
4. LKWNTTSVNVVYLSFIIGRQ
5. ILKSTELWKRESQFSQRVGA

[1.49, -0.294, "inactive", 2.15, 4.44]
